Tested on: KO-52 cells
Assay: Proliferation assay (spheroid confluence, 8 days), KO-52 control cell line
Format: cell-based, human
Conditions: Homo sapiens, read-out: spheroid assay_KO-52 IC50
quantity measured: pIC50
Scale note: pIC50 = -log10(concentration in M).

Look up pIC50: CC(=O)N1CCC(CN2CC[C@@H](Cc3cn(-c4ccc(F)cc4C(=O)N4CCC[C@H]4C)c4cncc(C)c34)C2)CC1 [Compound 315]
5.62

Look up pIC50: CNC(=O)[C@H]1CC[C@@H](CN2CC[C@@H](Cc3cn(-c4ccc(F)cc4C(=O)N(C)C(C)C)c4cncc(C)c34)C2)CC1 [Compound 185]
4.96

Look up pIC50: CC(=O)N1CCC(CN2CC[C@@H](Cc3cn(-c4ccc(F)cc4C(=O)N4[C@@H](C)CC[C@@H]4C)c4cncc(C)c34)C2)CC1 [Compound 316]
5.05

Look up pIC50: Cc1cncc2c1c(CC1CN([C@@H](C(C)C)[C@H]3C[C@@H](N4CCC(S(C)(=O)=O)CC4)C3)C1)cn2-c1ccc(F)cc1C(=O)N(C)C(C)C [Compound 33a]
5.52

Look up pIC50: Cc1cncc2c1c(CC1CN(CC3CCOCC3)C1)cn2-c1ccc(F)cc1C(=O)N1CCC2CC21 (stereo not drawn) [Compound 262]
5.54

Reference source: patent US20230250096A1
